- assay-overview: qHTS Primary assay for Inhibitors of Plasmodium falciparum Dd2 growth in vitro; note: nearly all actives have a fitted effect of over 65% in size
- recorded-conditions: P. falciparum Dd2 growth, SYBR Green, 72 h; series mostly up to 28.9 µM
The whole screen tested about 120,000 compounds, of which about 5,300 (4.4%) were called active. Inconclusive results (about 22%) are left out. Calls come from the whole dose curve; as a rule, active = well fitted inhibition curve with a large enough effect; inconclusive = small, poorly fitted or top-dose-only effect; inactive = no such curve, though single readings can be large or run the other way. The entries come from a sample that favours actives as a whole.
Permitted responses: t = active, f = inactive

input: I would be grateful if you could indicate the recorded call for CCC1=Nc2cc(C(=O)NCC(C)c3ccccc3)ccc2Sc2ccc(C)cc21 (centres undefined) .
output: t

input: I would be grateful if you could indicate the recorded call for CCOc1ccc(C(=O)N2CCN(CCc3ccccn3)CC2)cc1 .
output: t

input: I would be grateful if you could indicate the recorded call for Cc1c(C(=O)N2CCn3nc(C(O)CO)cc3C2)sc2ccccc12 (centres undefined) .
output: f

input: I would be grateful if you could indicate the recorded call for Cc1ccc(N(CC(=O)NCC(C)c2ccccc2)S(=O)(=O)N(C)C)cc1 (centres undefined) .
output: f

* * *

- assay-overview: qHTS Primary assay for Inhibitors of Plasmodium falciparum Dd2 growth in vitro; note: nearly all actives have a fitted effect of over 65% in size
- recorded-conditions: P. falciparum Dd2 growth, SYBR Green, 72 h; series mostly up to 28.9 µM
Screen size: about 120,000 compounds; about 5,300 (4.4%) were called active. Another 22% or so got no clear call; they are omitted. The call rests on the fitted dose curve; in most records, active means well fitted inhibition curve with a large enough effect; inconclusive means small, poorly fitted or top-dose-only effect; inactive means no such curve, though single readings can be large or run the other way. Many of the other results were omitted from the sample, so actives are more common in it than they were.
Permitted responses: yes for active, no for inactive

Examples with answers:
CCN(CC)CCNC(=O)Cn1ncc2c3ccccc3n(Cc3ccccc3C)c2c1=O    yes
COCCn1ncc(N2CCC(C(=O)NCc3ccc(C)o3)C2)cc1=O (centres undefined)    no

input: I would be grateful if you could indicate the recorded call for COc1ccc(C(C(=O)O)N2CCCN(c3ccc(F)cc3)CC2)cc1F (centres undefined) .
output: no

input: I would be grateful if you could indicate the recorded call for COc1ccc(Cn2ccnc2SCC(=O)Nc2ccc3c(c2)OCO3)cc1 .
output: no

* * *

- assay-overview: qHTS Primary assay for Inhibitors of Plasmodium falciparum Dd2 growth in vitro; note: nearly all actives have a fitted effect of over 65% in size; note: potency is the fitted concentration of half-maximal effect
- recorded-conditions: P. falciparum Dd2 growth, SYBR Green, 72 h; series mostly up to 28.9 µM
Screen size: about 120,000 compounds; about 5,300 (4.4%) were called active. Not shown: some 22% with an inconclusive outcome. The list comes from a sample in which actives are over-represented; it also holds close analogues and randomly drawn compounds.
observed-property: Potency

Use these answered entries as a reference point.
Cc1noc(CC2CCOC3(CCN(C(=O)c4ccc(C#N)cc4)CC3)C2)n1 (stereo unspecified)    inactive
CC(C)(C)C(=O)Cn1ccn2nc3c(c2c1=O)CCCC3    inactive
O=C(N[C@@H]1CN(Cc2c(F)cccc2F)C[C@H]1CO)c1ccccc1    inactive
CC(C)Cc1ccc(S(=O)(=O)N2CCCC2c2nncn2Cc2ccncc2)cc1 (stereo unspecified)    inactive
COCCCNC(=O)c1cc(C2CC2)nc2onc(C3CCCN3)c12 (stereo unspecified)    inactive
Cc1c(Cl)cccc1NC(=O)C1CCCN(c2ncnc3onc(C)c23)C1 (stereo unspecified)    inactive

Entry C[C@@]1(O)CCN(Cc2cc(=O)n3[nH]cnc3n2)C[C@@H]1O ; Potency = inactive

Entry Cc1noc2c(NC3CCCCC3)cc(-c3ccsc3)nc12 ; Potency = inactive

* * *

- assay-overview: qHTS Primary assay for Inhibitors of Plasmodium falciparum Dd2 growth in vitro; note: nearly all actives have a fitted effect of over 65% in size
- recorded-conditions: P. falciparum Dd2 growth, SYBR Green, 72 h; series mostly up to 28.9 µM
- Excerpt: Malaria, a parasitic disease spread to humans through the bite of a Plasmodium infected Anopheles mosquito, continues to be a global health burden affecting millions of people, with an estimated 228 million cases and 405,000 deaths in 2018. […] Malaria-vivax Assay Protocol: PROTOCOL TABLE (as described by Inglese et al., 2007) SEQUENCE No. (e.g., 1, 2, 3, etc.); […] […] Compound Management for Quantitative High-Throughput Screening. […]
Out of some 120,000 compounds screened, about 5,300 (4.4%) were called active. About 22% were inconclusive and are not listed. The call rests on the fitted dose curve; in most records, active means well fitted inhibition curve with a large enough effect; inconclusive means small, poorly fitted or top-dose-only effect; inactive means no such curve, though single readings can be large or run the other way. What follows is part of a selection rich in actives, with near analogues and random picks from the rest.
Permitted responses: active, inactive

COc1ccc(CCNC(=O)c2noc(-c3ccc(C)cc3)n2)cc1OC    inactive
COc1ccc(C2c3c(oc4ccccc4c3=O)C(=O)N2Cc2ccc3c(c2)OCO3)cc1 (stereo unspecified)    inactive
CCOc1ccccc1CNC(=O)c1ccc(-n2c(C)cc3c2CCC(C)C3)cc1 (stereo unspecified)    active
CN(Cc1ccccc1)C[C@H]1CN2CC[C@H]1C[C@@H]2CNC(=O)Nc1ccsc1    active
Cc1nc(-c2ccccc2)cc([C@H]2CN3CC[C@H]2C[C@@H]3CNC2CCN(C)CC2)n1    inactive

Please turn your attention to the following entry.
input: I would be grateful if you could indicate the recorded call for COc1ccccc1-c1cc([C@H]2CN3CC[C@H]2C[C@@H]3CNC(=O)c2ccco2)nc(C)n1 .
output: active

* * *

- assay-overview: qHTS Primary assay for Inhibitors of Plasmodium falciparum Dd2 growth in vitro; note: nearly all actives have a fitted effect of over 65% in size
- recorded-conditions: P. falciparum Dd2 growth, SYBR Green, 72 h; series mostly up to 28.9 µM
In all, about 120,000 compounds went through this assay and about 5,300 (4.4%) were called active. Another 22% or so got no clear call; they are omitted. The call rests on the fitted dose curve; in most records, active means well fitted inhibition curve with a large enough effect; inconclusive means small, poorly fitted or top-dose-only effect; inactive means no such curve, though single readings can be large or run the other way. The list comes from a sample in which actives are over-represented; it also holds close analogues and randomly drawn compounds.
Permitted responses: active, inactive

Examples with answers:
Oc1ccc(-c2nc(C3CC3)nc3c2CCN(Cc2cccc(F)c2)CC3)cc1    inactive
Cn1nccc1CN1CCc2nc(C3CC3)nc(-c3ccc(O)cc3)c2C1    inactive
COc1cccc(CNC(=O)Cn2c(C)cc3nc4n(c(=O)c32)CCCC4)c1    inactive

input: I would be grateful if you could indicate the recorded call for CCc1ccc(NC(=O)c2cnc3c(-c4ccccc4)c(C)nn3c2C)cc1 .
output: inactive

input: I would be grateful if you could indicate the recorded call for CC[C@@H](NC(=O)CC1CCN(Cc2ccccc2)CC1)C1CC(O)C1 (some centres not stated) .
output: inactive

input: I would be grateful if you could indicate the recorded call for Cn1nc2n(c1=O)CCN(C(=O)C1CC=CCC1)CC2 (configuration not stated) .
output: inactive

* * *

- assay-overview: qHTS Primary assay for Inhibitors of Plasmodium falciparum Dd2 growth in vitro; note: nearly all actives have a fitted effect of over 65% in size
- recorded-conditions: P. falciparum Dd2 growth, SYBR Green, 72 h; series mostly up to 28.9 µM
The campaign covered roughly 120,000 compounds. About 5,300 (4.4%) were called active. About 22% were inconclusive and are not listed. The call rests on the fitted dose curve; in most records, active means well fitted inhibition curve with a large enough effect; inconclusive means small, poorly fitted or top-dose-only effect; inactive means no such curve, though single readings can be large or run the other way. For the sample, actives were picked, then their nearest neighbours and some compounds at random.
Permitted responses: yes = active, no = inactive

Examples with answers:
Cc1nc2c(c(C)nn2-c2ccccc2)c(C)c1CCC(=O)NCCc1ccc(Cl)cc1    no
Cc1ccccc1NC(=O)N1CCC(CCNC(=O)c2ccoc2)CC1    no
COCC(=O)Nc1ccc([C@H]2OCC(=O)N[C@@H]2CO)cc1    no
O=C(CN1CC2CC(C1)[C@H]1CCCC(=O)N1C2)N1CCN(c2ccccn2)CC1 (stereo partly drawn)    no

input: I would be grateful if you could indicate the recorded call for CN1C(=O)c2[nH]nc(-c3ccc(F)cc3)c2C1c1ccccn1 (stereo not drawn) .
output: no

input: I would be grateful if you could indicate the recorded call for CCOC(=O)C1CCN(C(=O)c2cccc3c2CCN3C(=O)Nc2ccccc2)CC1 .
output: yes

input: I would be grateful if you could indicate the recorded call for COc1cccc(CC(=O)NC2CCN(c3cc(-c4ccccc4)[nH]n3)C2)c1 (stereo not drawn) .
output: no

input: I would be grateful if you could indicate the recorded call for Cn1cnc(S(=O)(=O)N2[C@H]3CC[C@@H]2c2cnc(-c4ccc(F)cc4)nc2C3)c1 .
output: no

* * *

- assay-overview: qHTS Primary assay for Inhibitors of Plasmodium falciparum Dd2 growth in vitro; note: nearly all actives have a fitted effect of over 65% in size
- recorded-conditions: P. falciparum Dd2 growth, SYBR Green, 72 h; series mostly up to 28.9 µM
Hit rate of the full screen: of about 120,000 compounds, about 5,300 (4.4%) were called active. Roughly 22% stayed inconclusive and do not appear here. Calls come from the whole dose curve; as a rule, active = well fitted inhibition curve with a large enough effect; inconclusive = small, poorly fitted or top-dose-only effect; inactive = no such curve, though single readings can be large or run the other way. The entries come from a sample that favours actives as a whole.
Permitted responses: active, inactive

input: I would be grateful if you could indicate the recorded call for COc1ccccc1NC(=O)C1c2ccccc2C(=O)N(CC(C)C)C12CCCC2 (stereo not given) .
output: active

input: I would be grateful if you could indicate the recorded call for Cc1ccc(NC(=O)CN2c3ccccc3S(=O)(=O)c3ccccc32)cc1F .
output: inactive

input: I would be grateful if you could indicate the recorded call for O=C(c1cccc(-n2cnnc2)c1)N(Cc1ccsc1)CC1CCCO1 (stereo not given) .
output: inactive

input: I would be grateful if you could indicate the recorded call for CCS(=O)(=O)N1CCC2(CC1)CC(N1CCN(C(C)C)CC1)CCO2 (stereo not given) .
output: inactive

input: I would be grateful if you could indicate the recorded call for COCc1cc(C[C@@H]2CC[C@H](O)[C@@H](CN(C)C)O2)no1 .
output: inactive
